Target: T1, FBF-2 RBD + CT (FBF-2 residues 164-632) (C. elegans, UniProt Q09312 164-632)
T1 construct: The tag was cleaved with Ulp1 protease; also called FBF-2^164–632; wild type RBD + CT; source: E. coli BL21-CodonPlus (DE3)-RIL, purified (Ni-NTA, heparin, Superdex 75); not shown: His6-SUMO, N-terminal, cleaved
T1 sequence (looked up): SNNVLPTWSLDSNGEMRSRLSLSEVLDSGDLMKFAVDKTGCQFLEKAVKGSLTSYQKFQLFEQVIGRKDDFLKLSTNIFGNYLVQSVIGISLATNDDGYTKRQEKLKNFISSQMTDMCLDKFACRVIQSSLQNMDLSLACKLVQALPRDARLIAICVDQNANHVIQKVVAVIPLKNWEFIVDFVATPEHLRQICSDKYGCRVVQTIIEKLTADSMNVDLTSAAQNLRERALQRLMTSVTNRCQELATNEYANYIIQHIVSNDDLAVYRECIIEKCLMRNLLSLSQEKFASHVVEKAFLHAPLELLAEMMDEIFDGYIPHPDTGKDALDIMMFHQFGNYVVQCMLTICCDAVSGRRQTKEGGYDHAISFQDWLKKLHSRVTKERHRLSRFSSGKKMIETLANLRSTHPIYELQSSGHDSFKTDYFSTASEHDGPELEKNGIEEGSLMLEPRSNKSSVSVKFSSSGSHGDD
Experiment: ITC; peptide (100–400 µM) titrated from the syringe into the cell containing FBF-2 (10–30 µM); 20 °C; 20 mM HEPES pH 7.4, 150 mM NaCl, 0.5 mM TCEP; no RNA; one-site model; mean of two replicates
Conditions: both partners purified
measurement.kind: Kd

The binder listed as SSSPQQRSGLRSQKLHLTYIEKNKRVRAMIPQ (peptide, UniProt P91820 67-98, looked up, The tag was cleaved with Ulp1 protease; also called LST-1^67–98; source: E. coli, purified (Ni-NTA, heparin, Superdex 75); not shown: His6-SUMO, N-terminal, cleaved) [LST-1 B peptide (LST-1 residues 67-98)] has a reported Kd of 2700 nM
